- TESTED SYSTEM: KCNT1 (KNa1.1, Slack) (Homo sapiens, UniProt Q5JUK3)
- Sequence (Q5JUK3 1-1230): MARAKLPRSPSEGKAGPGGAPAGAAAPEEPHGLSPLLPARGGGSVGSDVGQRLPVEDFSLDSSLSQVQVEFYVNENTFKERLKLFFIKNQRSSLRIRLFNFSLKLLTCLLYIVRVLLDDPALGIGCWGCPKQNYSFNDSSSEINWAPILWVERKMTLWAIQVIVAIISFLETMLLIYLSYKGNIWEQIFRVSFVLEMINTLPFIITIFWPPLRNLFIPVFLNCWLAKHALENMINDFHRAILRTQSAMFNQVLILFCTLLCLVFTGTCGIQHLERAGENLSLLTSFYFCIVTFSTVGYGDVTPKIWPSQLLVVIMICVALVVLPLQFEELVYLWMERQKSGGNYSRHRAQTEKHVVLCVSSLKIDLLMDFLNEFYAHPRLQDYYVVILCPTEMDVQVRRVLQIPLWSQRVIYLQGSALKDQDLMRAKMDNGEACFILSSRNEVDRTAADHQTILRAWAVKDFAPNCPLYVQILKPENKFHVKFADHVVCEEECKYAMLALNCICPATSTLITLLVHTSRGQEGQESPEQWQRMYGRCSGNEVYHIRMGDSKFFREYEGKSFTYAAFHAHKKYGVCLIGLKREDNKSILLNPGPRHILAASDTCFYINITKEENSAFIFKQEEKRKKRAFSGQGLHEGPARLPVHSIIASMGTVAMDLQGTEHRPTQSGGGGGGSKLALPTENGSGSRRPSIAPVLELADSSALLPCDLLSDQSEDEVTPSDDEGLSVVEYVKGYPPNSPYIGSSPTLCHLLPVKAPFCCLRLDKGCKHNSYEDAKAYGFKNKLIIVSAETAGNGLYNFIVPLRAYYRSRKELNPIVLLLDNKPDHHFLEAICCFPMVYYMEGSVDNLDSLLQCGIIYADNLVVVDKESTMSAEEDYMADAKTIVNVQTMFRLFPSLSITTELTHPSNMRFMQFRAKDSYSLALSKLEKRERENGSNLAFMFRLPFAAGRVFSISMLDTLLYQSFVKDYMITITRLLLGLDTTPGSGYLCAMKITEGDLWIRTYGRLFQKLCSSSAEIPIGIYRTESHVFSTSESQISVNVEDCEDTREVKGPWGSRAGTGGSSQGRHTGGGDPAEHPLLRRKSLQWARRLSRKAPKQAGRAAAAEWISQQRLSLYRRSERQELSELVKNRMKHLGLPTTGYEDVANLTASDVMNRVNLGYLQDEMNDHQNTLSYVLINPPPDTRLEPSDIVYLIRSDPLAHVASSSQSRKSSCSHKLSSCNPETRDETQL
- EXPERIMENT: KCNT1 patch clamp assay (SyncroPatch 384PE, tetracycline inducible HEK-TREX cell line)
- PROTOCOL CONDITIONS: WT KCNT1, HEK-TREX cells, perforated patch, step from -80 mV to 0 mV, room temperature; read-out: WT (KCNT1 inhibition IC50)
RESULT TYPE: IC50

See these solved cases before continuing.
# COMPOUND, TESTED SYSTEM, RESULT TYPE, MEASUREMENT
records = [
    ("Cn1nc(C(F)F)cc1C(=O)NC1(c2cc(-c3ccnc(C(F)(F)F)c3)nn2C)CC1", "KCNT1 (KNa1.1, Slack) (Homo sapiens, UniProt Q5JUK3)", "IC50", "≤ 1 µM"),
    ("Cn1nc(-c2ccnc(C(F)(F)F)c2)cc1CNC(=O)c1cc(C(F)F)nn1C", "KCNT1 (KNa1.1, Slack) (Homo sapiens, UniProt Q5JUK3)", "IC50", "≤ 1 µM"),
    ("Cc1cc(-c2cc(C(C)NC(=O)c3cc(C(F)(F)F)nn3C)n(C)n2)ccn1 (single isomer, unassigned) [Compound 1005]", "KCNT1 (KNa1.1, Slack) (Homo sapiens, UniProt Q5JUK3)", "IC50", "1 to 20 µM"),
]

For reference, reported IC50 for CC(NC(=O)c1cc(C(F)(F)F)nn1C)c1cc(-c2ccncc2)nn1C (single isomer, unassigned) [Compound 1003] stands at ≥ 20 µM

For reference, reported IC50 for CC(NC(=O)c1cc(C(F)(F)F)nn1C)c1cc(C(F)(F)F)nn1C (single isomer, unassigned) [Compound 1015] stands at 1 to 20 µM

For reference, reported IC50 for Cc1ncc(-c2cc(C(C)NC(=O)c3cc(C(F)(F)F)nn3C)n(C)n2)cn1 (stereo not shown) stands at ≥ 20 µM

For reference, reported IC50 for CC(NC(=O)c1cc(C(F)(F)F)nn1C)c1cc(-c2ccncc2)nn1C (single isomer, unassigned) [Compound 1008] stands at 1 to 20 µM

Taken from patent US20250346576A1.
